- ASSAY_TEXT: folding enthalpy; higher = less favourable; fluorescence melt of hairpins on a sequencing array, two-state fit
- CONDITION_NOTES: sodium 0.088 M
Mark No for folding enthalpy values under -30 kcal/mol, and Yes for everything at or above.

{"CONSTRUCT_SEQUENCE": "GCGTATGAAAATACGC ((((((....))))))", "CATEGORY": "No"}
{"CONSTRUCT_SEQUENCE": "GCGAACTTTCGC ((((....))))", "CATEGORY": "Yes"}
{"CONSTRUCT_SEQUENCE": "GCTAGCGAAAGCTGGAGC ((((((....)))..)))", "CATEGORY": "Yes"}
{"CONSTRUCT_SEQUENCE": "GGGTGCGAAAGCACGCCC ((((((....)))..)))", "CATEGORY": "Yes"}
{"CONSTRUCT_SEQUENCE": "CGGACGGAAACGTACCG ((((((....))).)))", "CATEGORY": "Yes"}
{"CONSTRUCT_SEQUENCE": "GCGAGGCGAAAGCCCAGC ((..(((....)))..))", "CATEGORY": "Yes"}
{"CONSTRUCT_SEQUENCE": "GATCTGTAAGCAGATC ((((((....))))))", "CATEGORY": "No"}
{"CONSTRUCT_SEQUENCE": "GGGCATGGAAACGTGCTC (.(((.(....).))).)", "CATEGORY": "Yes"}
{"CONSTRUCT_SEQUENCE": "GATCGCGATTGCGATC ((((((....))))))", "CATEGORY": "No"}
{"CONSTRUCT_SEQUENCE": "GTAATAGGAAACTATTAC (((((((....)))))))", "CATEGORY": "No"}
{"CONSTRUCT_SEQUENCE": "GCGGGCTCGAAAGAGCGC (((..(((....))))))", "CATEGORY": "Yes"}
{"CONSTRUCT_SEQUENCE": "GCCCCTGCGAAAGCAGGC (((..(((....))))))", "CATEGORY": "Yes"}
{"CONSTRUCT_SEQUENCE": "GGTGTACGAAAGTAAACC (((.(((....))).)))", "CATEGORY": "Yes"}
{"CONSTRUCT_SEQUENCE": "GCGGGCGGCCGC ((((....))))", "CATEGORY": "No"}
{"CONSTRUCT_SEQUENCE": "GTTCAGCGAAAGCTCAAC (((.(((....))).)))", "CATEGORY": "Yes"}
{"CONSTRUCT_SEQUENCE": "GCTTATGGAAACATAGGC ((.((((....)))).))", "CATEGORY": "No"}
{"CONSTRUCT_SEQUENCE": "GAAGCCGAAAGGCGTTTC ((((((....)))..)))", "CATEGORY": "Yes"}
{"CONSTRUCT_SEQUENCE": "GTGGTCGAAAGACAGCAC ((((((....)))..)))", "CATEGORY": "Yes"}
{"CONSTRUCT_SEQUENCE": "GTTCAAGGAAACTTGAGC (.(((((....))))).)", "CATEGORY": "Yes"}
{"CONSTRUCT_SEQUENCE": "GCTCTACGAAAGTAAGC (((.(((....))))))", "CATEGORY": "Yes"}
{"CONSTRUCT_SEQUENCE": "CGAAGGCGGAAACGCTCG (((..(((....))))))", "CATEGORY": "Yes"}
{"CONSTRUCT_SEQUENCE": "GTACTCGAAAGAGTTAC ((((((....))).)))", "CATEGORY": "Yes"}
{"CONSTRUCT_SEQUENCE": "GTCTTCGAAAGAAGGAC ((((((....))).)))", "CATEGORY": "Yes"}
